Each recorded value in this set is attributed to patent US20060257938A1.

- PROTOCOL_NOTES: Probe fluorescence ratio response to arachidonic acid relative to ADIFAB2
- Format: binding
- COND: arachidonic acid; response relative to ADIFAB2
MEASUREMENT_KIND: DR/DR AA
Number only, no unit.

Query block: Answer with reported DR/DR AA of 70W, 72A (protein, listed as Rattus norvegicus, PEPTIDE (1)...(131) wild-type rat intestinal fatty acid binding protein) AFDGTWKVDRNENYEKFMEKMGINVVKRKLGAHDNLKLTITQEGNKFTVKESSNFRNIDVVFELGVDFAWSAADGTELTGTWTMEGNKLVGKFKRVDNGKELIAVREISGNELIQTYTYEGVEAKRIFKKE
Result block: 0.349

Query block: Give the measured DR/DR AA for 14I 18V 31W 73I 117V 72A (protein, listed as Rattus norvegicus, PEPTIDE (1)...(131) wild-type rat intestinal fatty acid binding protein) AFDGTWKVDRNENIEKFVEKMGINVVKRKLWAHDNLKLTITQEGNKFTVKESSNFRNIDVVFELGVDFAYSAIDGTELTGTWTMEGNKLVGKFKRVDNGKELIAVREISGNELIQTVTYEGVEAKRIFKKE
Result block: 1.553

Query block: Identify the reported DR/DR AA for the following entry. 106S, 72A (protein, listed as Rattus norvegicus, PEPTIDE (1)...(131) wild-type rat intestinal fatty acid binding protein) AFDGTWKVDRNENYEKFMEKMGINVVKRKLGAHDNLKLTITQEGNKFTVKESSNFRNIDVVFELGVDFAYSAADGTELTGTWTMEGNKLVGKFKRVDNGKELIAVSEISGNELIQTYTYEGVEAKRIFKKE
Result block: 0.321
